Data provenance is paper PMC8154124.

test system: human colorectal carcinoma (HCT-116); test: MTT cytotoxicity assay, HCT-116; assay type: cell-based; conditions: 48 h, mean ± SD
Binning scheme for IC50: low value: < 30 µM; medium value: ≥ 30 µM and < 40 µM; high value: ≥ 40 µM

structure notation	class name
O=C(Nc1ccccc1)c1c(Nc2ccccc2)n[nH]c1N=Cc1c[nH]c2ccccc12	low value
COc1ccc(Nc2n[nH]c(N=Cc3c[nH]c4ccccc34)c2C(=O)Nc2ccccc2)cc1	low value
CCN1C(=O)C(=Nc2[nH]nc(Nc3ccccc3)c2C(=O)Nc2ccc(C)cc2)c2ccccc21	medium value
CCN1C(=O)C(=Nc2[nH]nc(Nc3ccc(OC)cc3)c2C(N)=O)c2ccccc21	low value
COc1ccc(Nc2n[nH]c(N=Cc3c[nH]c4ccccc34)c2C(N)=O)cc1	medium value
Cc1ccc(NC(=O)c2c(Nc3ccccc3)n[nH]c2N=C2C(=O)N(C)c3ccccc32)cc1	low value

Band for CCN1C(=O)C(=Nc2[nH]nc(Nc3ccccc3)c2C(=O)Nc2ccccc2)c2ccccc21 ?
low value

Input COc1ccc(Nc2n[nH]c(N=Cc3c[nH]c4ccccc34)c2C(=O)Nc2ccc(C)cc2)cc1 ; output its category
medium value

Looking at COc1ccc(Nc2n[nH]c(N=C3C(=O)N(C)c4ccccc43)c2C(=O)Nc2ccccc2)cc1 , which class would you pick?
high value

###

tested on: human liver carcinoma (HepG2); assay: MTT cytotoxicity assay, HepG2; format: cell-based; conditions: 48 h, mean ± SD
Consider the cut-off 30 µM. If the recorded IC50 is strictly smaller, the label is Condition met; if not, the label is Condition not met.

Use the examples below as a reference point.
compound	class name
Cc1ccc(NC(=O)c2c(Nc3ccccc3)n[nH]c2N=Cc2c[nH]c3ccccc23)cc1 [7b]	Condition met
COc1ccc(Nc2n[nH]c(N=Cc3c[nH]c4ccccc34)c2C(=O)Nc2ccc(C)cc2)cc1 [7e]	Condition met
CN1C(=O)C(=Nc2[nH]nc(Nc3ccccc3)c2C(=O)Nc2ccccc2)c2ccccc21 [5a]	Condition met
CCN1C(=O)C(=Nc2[nH]nc(Nc3ccc(OC)cc3)c2C(=O)Nc2ccccc2)c2ccccc21 [5i]	Condition met
Cc1ccc(NC(=O)c2c(Nc3ccccc3)n[nH]c2N=C2C(=O)N(C)c3ccccc32)cc1 [5b]	Condition not met

Consider the compound COc1ccc(Nc2n[nH]c(N=Cc3c[nH]c4ccccc34)c2C(=O)Nc2ccccc2)cc1 [7d] . Is its IC50 strictly less than 30 µM?
Condition met

Please indicate whether the reported IC50 of COc1ccc(Nc2n[nH]c(N=C3C(=O)N(C)c4ccccc43)c2C(=O)Nc2ccccc2)cc1 [5d] is strictly below 30 µM.
Condition not met

Would you kindly verify if IC50 of CCN1C(=O)C(=Nc2[nH]nc(Nc3ccc(OC)cc3)c2C(=O)Nc2ccc(C)cc2)c2ccccc21 [5j] is strictly less than 30 µM?
Condition met

###

tested on: human liver carcinoma (HepG2); assay: MTT cytotoxicity assay, HepG2; assay type: cell-based; details: 48 h, mean ± SD
Below is a list of entries, each paired with its recorded IC50 value.
Include the unit after the number when you answer.

compound	result
COc1ccc(Nc2n[nH]c(N=C3C(=O)N(C)c4ccccc43)c2C(N)=O)cc1	32.8 µM

Record for CCN1C(=O)C(=Nc2[nH]nc(Nc3ccccc3)c2C(=O)Nc2ccc(C)cc2)c2ccccc21 under target or system human liver carcinoma (HepG2): IC50 reported as 27.8 µM

Record O=C(Nc1ccccc1)c1c(Nc2ccccc2)n[nH]c1N=Cc1c[nH]c2ccccc12 has human liver carcinoma (HepG2) IC50 equal to 6.1 µM

The compound COc1cccc2c1C(=O)c1c(O)c3c(c(O)c1C2=O)C[C@@](O)(C(=O)CO)C[C@@H]3O[C@H]1C[C@H](N)[C@H](O)[C@H](C)O1 [doxorubicin, reference compound] , tested on human liver carcinoma (HepG2), showed IC50 of 24.7 µM

Entry CCN1C(=O)C(=Nc2[nH]nc(Nc3ccccc3)c2C(=O)Nc2ccccc2)c2ccccc21 , tested on human liver carcinoma (HepG2), has a reported IC50 of 23.7 µM

With human liver carcinoma (HepG2) as the test system, COc1ccc(Nc2n[nH]c(N=C3C(=O)N(C)c4ccccc43)c2C(=O)Nc2ccc(C)cc2)cc1 showed IC50 of 32 µM

Measured IC50 (human liver carcinoma (HepG2)), entry COc1ccc(Nc2n[nH]c(N=Cc3c[nH]c4ccccc34)c2C(N)=O)cc1 : 35.8 µM

Measured IC50 (human liver carcinoma (HepG2)), entry CCN1C(=O)C(=Nc2[nH]nc(Nc3ccc(OC)cc3)c2C(N)=O)c2ccccc21 : 28.2 µM
